assay system: melatonin ML1a receptor (Homo sapiens)
Construct: expressed in transfected cells; membrane homogenates
Sequence (P48039 whole entry): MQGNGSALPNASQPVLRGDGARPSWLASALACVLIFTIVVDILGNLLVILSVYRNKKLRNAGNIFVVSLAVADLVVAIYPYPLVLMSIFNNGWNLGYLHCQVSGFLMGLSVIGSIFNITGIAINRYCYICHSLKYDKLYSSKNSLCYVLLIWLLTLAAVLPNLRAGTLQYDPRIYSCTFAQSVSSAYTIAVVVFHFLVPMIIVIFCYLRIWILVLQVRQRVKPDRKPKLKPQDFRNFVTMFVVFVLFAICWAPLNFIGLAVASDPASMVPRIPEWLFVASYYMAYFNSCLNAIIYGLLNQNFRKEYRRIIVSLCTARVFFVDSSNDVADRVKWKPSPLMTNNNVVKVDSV
assay info: Melatonergic receptor binding, 2-[125I]-iodomelatonin, ML1a
recorded conditions: Table II; NIH-3T3 membranes, 0.1 nM 2-[125I]-iodomelatonin, 37° C. 1 hour
test readout: IC50

> print(dat)
                                   compound                            assay.system  test.readout        result
1  CCc1nc2ccc(C)c(CCCNC(C)=O)c2o1 [Example 44]  melatonin ML1a receptor (Homo sapiens)          IC50  10 to 250 nM

Prompt: Query (compound): CCc1nc2ccc(-c3ccc(C(F)(F)F)cc3)c(CCCNC(C)=O)c2o1 [Example 50] ; field requested: IC50
Completion: > 250 nM
